These measurements were taken from patent US20260285850A1.

- Tested on: rice (Oryza sativa)
- Method summary: Test B flooded paddy test, visual plant response rating 0-100
- Format: in vivo
- Settings: 250 g ai/ha, Flood, applied to paddy water, evaluated after 13 days
Measured Plant response rating, Rice (0 to 100 scale, 0 is no effect and 100 is complete control) of individual entries
Quantity kind: Plant response rating, Rice (0 to 100 scale, 0 is no effect and 100 is complete control)

[[record]]
compound = "CC(C)COC(=O)C1C=CC(NC(=O)C2(C)CN(c3cc(Cl)cc(Cl)c3)C(=O)O2)C1 (stereo not drawn) [Compound 66]"
reported_result = 15

[[record]]
compound = "COC(=O)COC(=O)C1C=CC(NC(=O)C2(C)CN(c3cc(Cl)cc(Cl)c3)C(=O)O2)C1 (stereo not drawn) [Compound 65]"
reported_result = 60

[[record]]
compound = "CC1(C(=O)NC2CCC(C(=O)NS(C)(=O)=O)C2)CN(c2cc(F)cc(F)c2)C(=O)O1 (stereo not drawn) [Compound 13]"
reported_result = 0

[[record]]
compound = "CC1(C(=O)NC2CC=C(C(=O)O)C2)CN(c2cc(Cl)cc(Cl)c2)C(=O)O1 (stereo not drawn) [Compound 157]"
reported_result = 0

[[record]]
compound = "CC1(C(=O)NC2CC=C(C(=O)NS(=O)(=O)c3ccccc3)C2)CN(c2cc(F)cc(F)c2)C(=O)O1 (racemic) [Compound 104]"
reported_result = 0

[[record]]
compound = "CCOC(=O)C1CC(NC(=O)C2(C)CN(c3cc(F)cc(F)c3)C(=O)O2)CO1 (stereo not drawn) [Compound 31]"
reported_result = 0

[[record]]
compound = "CCCS(=O)(=O)NC(=O)C1C=CC(NC(=O)C2(C)CN(c3cc(F)cc(F)c3)C(=O)O2)C1 (stereo not drawn) [Compound 50]"
reported_result = 75

[[record]]
compound = "CC1(C(=O)NC2CC=C(C(=O)NS(C)(=O)=O)C2)CN(c2cc(F)cc(F)c2)C(=O)O1 (racemic) [Compound 103]"
reported_result = 0

[[record]]
compound = "CC1(C(=O)NC2CC=C(C(=O)OCC(F)F)C2)CN(c2cc(F)cc(F)c2)C(=O)O1 (stereo not drawn) [Compound 151]"
reported_result = 0

[[record]]
compound = "CC(C)COC(=O)C1=CCC(NC(=O)C2(C)CN(c3cc(F)cc(F)c3)C(=O)O2)C1 (stereo not drawn) [Compound 98]"
reported_result = 70

[[record]]
compound = "COC(=O)C1C=CC(NC(=O)C2(C(F)(F)F)CN(c3cc(F)c(F)c(F)c3)C(=O)O2)C1 (mixture of isomers) [Compound 162]"
reported_result = 0

[[record]]
compound = "CC(C)OC(=O)C1=CCC(NC(=O)C2(C)CN(c3cc(Cl)cc(Cl)c3)C(=O)O2)C1 (stereo not drawn) [Compound 105]"
reported_result = 0

[[record]]
compound = "COC(=O)C1=CCC(NC(=O)C2(C)CN(c3cc(F)cc(Cl)c3)C(=O)O2)C1 (stereo not drawn) [Compound 140]"
reported_result = 65

[[record]]
compound = "CSCCOC(=O)C1C=CC(NC(=O)C2(C)CN(c3cc(Cl)cc(Cl)c3)C(=O)O2)C1 (stereo not drawn) [Compound 45]"
reported_result = 15

[[record]]
compound = "CC1(C(=O)NC2C=CC(C(=O)OCCS(C)(=O)=O)C2)CN(c2cc(F)cc(F)c2)C(=O)O1 (stereo not drawn) [Compound 49]"
reported_result = 55

